FYI, the data here is from patent US7189680B2.

protocol-notes: logP determination by HPLC (EEC directive 79/831 Annex V. A8)
Type: physicochemical
assay-conditions: HPLC gradient method, acetonitrile/0.1% aqueous phosphoric acid; Table 1
measured-endpoint: logP*

> print(dat)
                                   molecule  reading
1  CC(C)ON(C)c1c(-c2c(F)cccc2F)c(Cl)nc2ncnn12 [Example 34]     3.01

P. CCC(C)ONc1c(-c2c(F)cc(F)cc2F)c(Cl)nc2ncnn12 (stereo not drawn) [Example 41]
Q. CC(C)=NN(CC1CCCCC1)c1c(-c2c(F)cc(F)cc2F)c(Cl)nc2ncnn12 [Example 26]
R. CONc1c(-c2ccccc2F)c(Cl)nc2ncnn12 [Example 67]
Prompt: Form: Sort by [logP*] Order [ ascending ] // format: requested-order list of labels
Completion: R, P, Q
(R: 1.89, P: 2.86, Q: 4.5)

###

protocol-notes: logP determination by HPLC (EEC directive 79/831 Annex V. A8)
Assay type: physicochemical
assay-conditions: HPLC gradient method, acetonitrile/0.1% aqueous phosphoric acid; Table 1
measured-endpoint: logP*

Check out these entries, answers already filled in.
> print(dat)
                                   compound  measured.endpoint  reading
1  COC(=O)N(C)Nc1c(-c2ccccc2F)c(Cl)nc2ncnn12              logP*      1.8
2       CONc1c(-c2c(F)cccc2F)c(Cl)nc2ncnn12              logP*     1.92
3       CCCCONc1c(-c2ccccc2F)c(Cl)nc2ncnn12              logP*     2.85
4  CCC(C)NNc1c(-c2cc(C(F)(F)F)ccc2Cl)c(Cl)nc2ncnn12 (stereo not drawn) [Example 147]              logP*     3.95

1. CC(C)(C)ONc1c(-c2ccccc2F)c(Cl)nc2ncnn12
2. NN(CCN1CCOCC1)c1c(-c2c(F)cc(F)cc2F)c(Cl)nc2ncnn12
3. Fc1c(F)c(F)c(-c2c(Cl)nc3ncnn3c2NOCc2cccc(C(F)(F)F)c2)c(F)c1F
Prompt: Would you mind ranking these compounds by ascending logP*? Use the labels to give the requested order.
Completion: 2, 1, 3
(2: 1.1, 1: 2.58, 3: 3.72)

I. Fc1cc(F)c(-c2c(Cl)nc3ncnn3c2NOCOc2ccc(Cl)nc2)c(F)c1
II. Fc1c(F)c(F)c(-c2c(Cl)nc3ncnn3c2NOCc2ccc(Cl)cc2)c(F)c1F
III. OCCNNc1c(-c2c(F)cc(F)cc2F)c(Cl)nc2ncnn12
Prompt: Order these by logP*, descending, and give the full ranking. Give the order by naming the labels one after another as requested.
Completion: II, I, III

###

Tested on: Alternaria solani
protocol-notes: Alternaria test (tomato)/protective
Assay type: in vivo
assay-conditions: protective, 750 g/ha, evaluation 7 days after inoculation
measured-endpoint: Efficacy in % (%)
API: value field is a number in %; no unit string.

Prompt: Note Efficacy in % for the compound shown: CCN(N)c1c(-c2c(F)cc(F)cc2F)c(Cl)nc2ncnn12 [drawing 48]
Completion: 89

###

protocol-notes: logP determination by HPLC (EEC directive 79/831 Annex V. A8)
Format: physicochemical
assay-conditions: HPLC gradient method, acetonitrile/0.1% aqueous phosphoric acid; Table 1
measured-endpoint: logP*

1. CCC(C)ONc1c(-c2c(F)c(F)c(F)c(F)c2F)c(Cl)nc2ncnn12 (stereo not drawn)
2. CONc1c(-c2c(F)cc(F)cc2F)c(Cl)nc2ncnn12
Prompt: Hi, I'm comparing 1 with 2 and wondering which one has the bigger number for logP*. Any idea? Lab note: record the label of whichever item you select.
Completion: 1
